Molecular target: T1, human ANGPTL3/8 complex (human, UniProt Q9Y5C1 17-460; Q6UXH0 22-198, limits assumed)
T1 sequence 1: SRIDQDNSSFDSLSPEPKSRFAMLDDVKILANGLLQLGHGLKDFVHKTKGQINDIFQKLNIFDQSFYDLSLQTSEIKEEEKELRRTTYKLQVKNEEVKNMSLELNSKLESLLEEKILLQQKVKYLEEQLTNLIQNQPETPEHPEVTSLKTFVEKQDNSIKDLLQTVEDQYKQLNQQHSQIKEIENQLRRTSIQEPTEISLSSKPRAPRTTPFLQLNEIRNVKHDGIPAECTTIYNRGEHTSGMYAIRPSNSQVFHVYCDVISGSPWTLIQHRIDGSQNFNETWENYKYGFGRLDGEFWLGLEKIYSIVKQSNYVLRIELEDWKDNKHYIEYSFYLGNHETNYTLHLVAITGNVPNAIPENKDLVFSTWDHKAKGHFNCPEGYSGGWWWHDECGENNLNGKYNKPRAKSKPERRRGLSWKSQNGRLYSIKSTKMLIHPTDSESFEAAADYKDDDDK
T1 sequence 2: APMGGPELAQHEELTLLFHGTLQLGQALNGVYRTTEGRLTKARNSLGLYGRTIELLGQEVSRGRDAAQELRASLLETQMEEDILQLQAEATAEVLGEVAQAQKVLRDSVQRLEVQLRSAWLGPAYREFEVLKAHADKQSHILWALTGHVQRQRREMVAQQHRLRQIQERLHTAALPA
Assay: cell-based or functional assay
Each entry below carries its recorded Ab EC50 (nM), derepression of LPL.
measure: Ab EC50 (nM), derepression of LPL

[[record]]
binder = "Ab with LC variant having a D33A mutation (SEQ ID NO:22) and a HC of SEQ ID NO:6 (antibody, human IgG4 S228P, kappa, F234A L235A, V domains shown, also called D33A Variant Ab; D33A Ab) VH: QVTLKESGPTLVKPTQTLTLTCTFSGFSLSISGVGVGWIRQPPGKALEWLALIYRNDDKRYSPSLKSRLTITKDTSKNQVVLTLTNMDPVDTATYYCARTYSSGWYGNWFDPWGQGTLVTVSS VL: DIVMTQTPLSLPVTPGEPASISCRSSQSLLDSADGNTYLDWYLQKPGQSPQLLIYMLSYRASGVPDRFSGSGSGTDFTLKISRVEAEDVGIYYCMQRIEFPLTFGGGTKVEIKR"
unitofmeasure = "nM"
readoutvalue = 1.14

[[record]]
binder = "Ab with LC variant having a D33T mutation (SEQ ID NO:23) and a HC of SEQ ID NO:6 (antibody, human IgG4 S228P, kappa, F234A L235A, V domains shown, also called D33T Ab) VH: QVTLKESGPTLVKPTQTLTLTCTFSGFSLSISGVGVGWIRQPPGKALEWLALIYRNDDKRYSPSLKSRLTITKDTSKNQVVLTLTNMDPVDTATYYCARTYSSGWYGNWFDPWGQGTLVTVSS VL: DIVMTQTPLSLPVTPGEPASISCRSSQSLLDSTDGNTYLDWYLQKPGQSPQLLIYMLSYRASGVPDRFSGSGSGTDFTLKISRVEAEDVGIYYCMQRIEFPLTFGGGTKVEIKR"
unitofmeasure = "nM"
readoutvalue = 1.56

[[record]]
binder = "Ab with LC variant having a D31S mutation (SEQ ID NO:21) and a HC of SEQ ID NO:6 (antibody, human IgG4 S228P, kappa, F234A L235A, V domains shown, also called D31S Variant Ab; D31S Ab) VH: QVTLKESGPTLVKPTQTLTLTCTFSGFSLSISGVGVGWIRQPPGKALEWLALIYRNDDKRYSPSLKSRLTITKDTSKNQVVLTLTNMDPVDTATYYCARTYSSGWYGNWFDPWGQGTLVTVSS VL: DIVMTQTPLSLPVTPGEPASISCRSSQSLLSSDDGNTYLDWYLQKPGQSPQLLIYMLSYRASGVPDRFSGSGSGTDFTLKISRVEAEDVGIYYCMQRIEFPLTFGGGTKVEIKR"
unitofmeasure = "nM"
readoutvalue = 0.86

[[record]]
binder = "Ab with LC variant having a E99Q mutation (SEQ ID NO:25) and a HC of SEQ ID NO:6 (antibody, human IgG4 S228P, kappa, F234A L235A, V domains shown, also called E99Q Variant Ab; E99Q Ab) VH: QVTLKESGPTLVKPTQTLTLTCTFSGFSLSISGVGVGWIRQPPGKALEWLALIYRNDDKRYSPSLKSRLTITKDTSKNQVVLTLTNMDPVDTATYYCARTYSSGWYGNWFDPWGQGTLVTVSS VL: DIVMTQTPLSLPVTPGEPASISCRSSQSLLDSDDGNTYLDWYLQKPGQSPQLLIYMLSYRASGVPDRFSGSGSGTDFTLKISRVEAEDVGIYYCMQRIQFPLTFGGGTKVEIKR"
unitofmeasure = "nM"
readoutvalue = 0.49

